# ASSAY SYSTEM: HCMV polymerase (Human cytomegalovirus)
# Construct: made in house; host or cells: SF-9 insect cells infected with recombinant baculovirus
# METHOD DESCRIPTION: HCMV polymerase assay (scintillation proximity assay)
# Format: biochemical
# CONDITION CONTEXT: percentage of inhibition at 25 μM concentration in CMV polymerase assay
REPORTED ENDPOINT: inhibition at 25 µM (%)
Unit % implied. Number only.

Ask: Given the entry `CCSCCNc1nnc(NC(=O)c2ccc(C(F)(F)F)cc2)s1` , report its measured inhibition at 25 µM.
Reply: 25

Ask: Try the molecule `O=C(Nc1nnc(NCCCN2CCCC2=O)s1)c1ccc(Br)cc1`
Reply: 24.3

---

% Inhib overview
# ASSAY SYSTEM: HCMV polymerase (Human cytomegalovirus)
# Construct: made in house; host or cells: SF-9 insect cells infected with recombinant baculovirus
# METHOD DESCRIPTION: HCMV polymerase assay (scintillation proximity assay)
# Type: biochemical
# CONDITION CONTEXT: percentage of inhibition at 25 μM concentration in CMV polymerase assay
Unit % implied. Number only.

> print(dat)
                      smiles.representation  unit.symbol  assay.value
1  O=C(Nc1nnc(NCCCCc2ccccc2)s1)c1ccc(S(=O)(=O)F)cc1            %         41.0
2  O=C(Nc1nnc(NCCNc2ccccc2)s1)c1ccc(S(=O)(=O)F)cc1            %         45.0
3  O=C(Nc1nnc(NCCCNC2CCCCC2)s1)c1ccc(S(=O)(=O)F)cc1            %         47.1

Ask: Given the entry `O=C(Nc1nnc(NCC(c2ccccc2)c2ccccc2)s1)c1ccc(S(=O)(=O)F)cc1` , report its measured % Inhib.
Reply: 62.6

---

# ASSAY SYSTEM: HCMV polymerase (Human cytomegalovirus, UniProt P08546)
# Construct: made in house; host or cells: SF-9 insect cells infected with recombinant baculovirus
# Sequence (P08546 whole entry): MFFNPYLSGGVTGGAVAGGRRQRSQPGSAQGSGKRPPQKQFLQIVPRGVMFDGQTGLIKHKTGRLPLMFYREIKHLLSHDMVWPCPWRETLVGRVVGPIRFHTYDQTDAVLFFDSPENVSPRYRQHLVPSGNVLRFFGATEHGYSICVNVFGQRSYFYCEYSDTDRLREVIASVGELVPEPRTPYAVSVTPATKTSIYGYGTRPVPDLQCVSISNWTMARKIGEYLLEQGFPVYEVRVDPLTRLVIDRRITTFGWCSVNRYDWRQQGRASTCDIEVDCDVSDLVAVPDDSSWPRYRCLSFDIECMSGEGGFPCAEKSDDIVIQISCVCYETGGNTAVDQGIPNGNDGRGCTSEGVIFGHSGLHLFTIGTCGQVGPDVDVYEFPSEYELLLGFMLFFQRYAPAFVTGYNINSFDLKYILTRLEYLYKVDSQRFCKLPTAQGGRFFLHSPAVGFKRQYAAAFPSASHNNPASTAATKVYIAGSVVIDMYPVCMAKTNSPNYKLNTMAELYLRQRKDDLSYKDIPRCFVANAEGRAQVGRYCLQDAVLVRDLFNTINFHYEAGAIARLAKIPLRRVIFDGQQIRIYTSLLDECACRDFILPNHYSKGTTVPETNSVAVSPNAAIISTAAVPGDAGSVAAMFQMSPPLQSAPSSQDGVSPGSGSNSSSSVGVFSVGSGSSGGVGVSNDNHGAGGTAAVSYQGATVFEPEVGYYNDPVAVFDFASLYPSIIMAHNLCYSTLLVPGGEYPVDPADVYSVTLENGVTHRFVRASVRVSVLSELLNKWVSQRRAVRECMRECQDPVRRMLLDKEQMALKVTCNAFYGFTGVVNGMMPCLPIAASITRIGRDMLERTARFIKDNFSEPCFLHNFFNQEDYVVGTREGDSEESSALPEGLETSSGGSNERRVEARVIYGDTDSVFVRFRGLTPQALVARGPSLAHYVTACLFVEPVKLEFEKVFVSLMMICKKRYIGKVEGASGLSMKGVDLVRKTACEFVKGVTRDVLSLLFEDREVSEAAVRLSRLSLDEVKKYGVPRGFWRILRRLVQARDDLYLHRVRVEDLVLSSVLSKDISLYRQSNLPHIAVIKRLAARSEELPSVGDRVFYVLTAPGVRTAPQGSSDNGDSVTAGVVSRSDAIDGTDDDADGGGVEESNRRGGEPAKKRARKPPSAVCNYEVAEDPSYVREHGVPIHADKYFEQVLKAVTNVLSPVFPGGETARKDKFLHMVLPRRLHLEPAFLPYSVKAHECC
# METHOD DESCRIPTION: HCMV polymerase assay (scintillation proximity assay)
# Type: biochemical
# CONDITION CONTEXT: percentage of inhibition at 25 μM concentration in CMV polymerase assay
inhibition at 25 µM overview
Unit % implied. Number only.

> print(dat)
                                   compound  unit.symbol  assay.value
1  O=C(Nc1nnc(NCc2cccs2)s1)c1cc2ccccc2s1 [compound 237]            %         41.5
2  CC(C)c1cc(C(C)C)c(C(=O)Nc2nnc(NCc3ccc(S(N)(=O)=O)cc3)s2)c(C(C)C)c1 [compound 35]            %         89.7
3  N#Cc1ccc(C(=O)Nc2nnc(NCCc3ccc(S(N)(=O)=O)cc3)s2)cc1 [compound 335]            %         31.7
4  CCCCCCCCCCCNc1nnc(NC(=O)c2ccc(Br)cc2)s1 [compound 194]            %         46.8
5  O=C(CCCCCl)Nc1nnc(NCCCCc2ccccc2)s1 [compound 382]            %         27.3

Ask: Given the entry Cc1ccc(C(=O)Nc2nnc(NCCNc3ccccc3)s2)cc1 [compound 393] , report its measured inhibition at 25 µM.
Reply: 26.1

Ask: Try the compound O=C(Nc1nnc(NCCCCc2ccccc2)s1)c1ccc([N+](=O)[O-])o1 [compound 131]
Reply: 58

Ask: Try the compound O=C(/C=C/c1ccccc1)Nc1nnc(NCc2ccccn2)s1 [compound 139]
Reply: 56.2

---

# ASSAY SYSTEM: HCMV polymerase (Human cytomegalovirus, UniProt P08546)
# Construct: made in house; host or cells: SF-9 insect cells infected with recombinant baculovirus
# METHOD DESCRIPTION: HCMV polymerase assay (scintillation proximity assay)
# Assay type: biochemical
# CONDITION CONTEXT: percentage of inhibition at 25 μM concentration in CMV polymerase assay
inhibition at 25 µM overview
Unit % implied. Number only.

Solved entries (count: 6):
> print(dat)
                      smiles.representation    reported.endpoint  unit.symbol  assay.value
1  O=C(Nc1nnc(NCCc2c[nH]c3ccccc23)s1)c1ccc(I)cc1  inhibition at 25 µM            %         40.2
2  O=C(/C=C/c1ccccc1Cl)Nc1nnc(NCCCCc2ccccc2)s1  inhibition at 25 µM            %         29.4
3  O=C(Nc1nnc(NCc2cccc3ccccc23)s1)c1cc(F)cc(F)c1  inhibition at 25 µM            %         28.8
4  CCOc1ccc2ccccc2c1C(=O)Nc1nnc(NC2CCCCCC2)s1  inhibition at 25 µM            %           53
5    N#Cc1ccc(C(=O)Nc2nnc(NCCc3cccs3)s2)cc1  inhibition at 25 µM            %         64.9
6  CCCCCCCCCCCNc1nnc(NC(=O)c2ccc(C(F)(F)F)cc2)s1  inhibition at 25 µM            %         41.4

Ask: Given the entry `O=C(Nc1nnc(NCC(c2ccccc2)c2ccccc2)s1)c1ccc([N+](=O)[O-])o1` , report its measured inhibition at 25 µM.
Reply: 34.4

Ask: Try the compound `O=C(Nc1nnc(NCC2CCCCC2)s1)c1ccc2c(c1)C(=O)OC2=O`
Reply: 100

Ask: Try the compound `CC(=O)NCCNc1nnc(NC(=O)/C=C/c2ccccc2)s1`
Reply: 25.8

---

# ASSAY SYSTEM: HCMV polymerase (Human cytomegalovirus)
# Construct: made in house; host or cells: SF-9 insect cells infected with recombinant baculovirus
# METHOD DESCRIPTION: HCMV polymerase assay (scintillation proximity assay)
# Format: biochemical
# CONDITION CONTEXT: percentage of inhibition at 25 μM concentration in CMV polymerase assay
REPORTED ENDPOINT: inhibition at 25 µM (%)
Unit % implied. Number only.

Ask: Form field - read-out: inhibition at 25 µM; system: HCMV polymerase (Human cytomegalovirus); submitted item: `O=C(Nc1nnc(NCCc2cccs2)s1)c1ccc(F)cc1F`
Reply: 21.9

Ask: Try the compound `CCCCCCCCCCCNc1nnc(NC(=O)/C=C/c2ccccc2)s1`
Reply: 31.2

Ask: Try the compound `O=C(Nc1nnc(NCc2cccc3ccccc23)s1)c1ccc([N+](=O)[O-])o1`
Reply: 83.3

Ask: Try the compound `NS(=O)(=O)c1ccc(CCNc2nnc(NC(=O)/C=C/c3ccccc3)s2)cc1`
Reply: 79.8

Ask: Try the compound `CCCCCCCCCCCNc1nnc(NC(=O)c2cc(F)cc(F)c2)s1`
Reply: 49.4

Ask: Try the compound `CC(C)c1cc(C(C)C)c(C(=O)Nc2nnc(NCc3cccc4ccccc34)s2)c(C(C)C)c1`
Reply: 49.5

Ask: Try the compound `O=C(Nc1nnc(NCCc2c[nH]c3ccccc23)s1)c1ccc(Br)cc1`
Reply: 30.3

Ask: Try the compound `O=C(Nc1nnc(NCCC(c2ccccc2)c2ccccc2)s1)c1ccc(F)cc1F`
Reply: 41.1

Ask: Try the compound `N#Cc1ccc(C(=O)Nc2nnc(NCc3ccc4c(c3)OCO4)s2)cc1`
Reply: 20

---

# ASSAY SYSTEM: HCMV polymerase (Human cytomegalovirus, UniProt P08546)
# Construct: made in house; host or cells: SF-9 insect cells infected with recombinant baculovirus
# METHOD DESCRIPTION: HCMV polymerase assay (scintillation proximity assay)
# Assay type: biochemical
# CONDITION CONTEXT: percentage of inhibition at 25 μM concentration in CMV polymerase assay
REPORTED ENDPOINT: inhibition at 25 µM (%)
Unit % implied. Number only.

Solved entries (count: 5):
> print(dat)
                                   compound  assay.value
1  COc1ccccc1C(=O)Nc1nnc(NC2CCCCCC2)s1 [compound 310]           34
2  CC(C)(C)OC(=O)CCNc1nnc(NC(=O)c2ccc(Cl)c(Cl)c2)s1 [compound 420]         24.1
3  O=C(Nc1nnc(NC2CCCCCC2)s1)c1c(Cl)cccc1Cl [compound 369]         28.3
4  NS(=O)(=O)c1ccc(CCNc2nnc(NC(=O)/C=C/c3ccccc3Cl)s2)cc1 [compound 125]         58.9
5  O=C(Nc1nnc(NCc2cccc3ccccc23)s1)c1cccc([N+](=O)[O-])c1 [compound 190]         47.1

Ask: Given the entry CCCCCCCC/C=C/CCCCCCCC(=O)Nc1nnc(NC2CCCc3ccccc32)s1 (centres unmarked) [compound 107] , report its measured inhibition at 25 µM.
Reply: 63.8

Ask: Try the compound O=C(Nc1nnc(NCCc2c[nH]c3ccccc23)s1)c1ccc(Cl)c(Cl)c1 [compound 295]
Reply: 35.4

Ask: Try the compound O=C(Nc1nnc(NCCCN2CCCC2=O)s1)c1ccc(I)cc1 [compound 203]
Reply: 45

Ask: Try the compound O=C(Nc1nnc(NCCc2c[nH]c3ccccc23)s1)c1ccc(C(F)(F)F)cc1 [compound 284]
Reply: 36.7

Ask: Try the compound O=C(/C=C/c1ccccc1)Nc1nnc(NC2CCN(Cc3ccccc3)CC2)s1 [compound 290]
Reply: 35.9

Ask: Try the compound O=C(/C=C/c1ccccc1Cl)Nc1nnc(NCCc2ccccc2)s1 [compound 210]
Reply: 44.6

Ask: Try the compound O=C(/C=C/c1ccccc1)Nc1nnc(NCCSc2ccccc2)s1 [compound 114]
Reply: 62.1

Ask: Try the compound CCOc1ccc2ccccc2c1C(=O)Nc1nnc(NCCNc2ccccc2)s1 [compound 69]
Reply: 70.6

Ask: Try the compound O=C(/C=C/c1ccccc1)Nc1nnc(NCCNc2ccccc2)s1 [compound 379]
Reply: 27.5

Ask: Try the compound O=C(Nc1nnc(NCCCN2CCCC2=O)s1)c1ccc(F)cc1F [compound 427]
Reply: 23.4

Ask: Try the compound O=C(Nc1nnc(NC2CCCc3ccccc32)s1)c1cccc([N+](=O)[O-])c1 (centres unmarked) [compound 347]
Reply: 30.6

Ask: Try the compound CCCCCCCC/C=C/CCCCCCCC(=O)Nc1nnc(NCCc2ccc(S(N)(=O)=O)cc2)s1 [compound 336]
Reply: 31.6
